System: HOP-62
Assay: NCI tumour cell line growth inhibition, 48 h
Calls of active or inactive are those of the source. Rule as the data show it: active = GI50 up to about 1.1 µM and inactive = higher.
quantity-measured: GI50

Recorded GI50, per entry:
CCCNC(=S)N/N=C1\C(=O)Nc2ccccc21 | > 100 µM (inactive)
CN(O)C(=O)c1ccccc1 | > 100 µM (inactive)
CCN(CC)CCCNC(=O)C1COc2cc(-c3cc(=O)c4ccccc4o3)ccc2O1 (stereo unspecified) | > 100 µM (inactive)
CCOC(=O)C(=Cc1ccccc1Br)C(=O)OCC | 2.37 µM (inactive)
O=C(/C=C/c1ccc(OCc2ccccc2)c(OCc2ccccc2)c1)OCc1ccccc1 | > 100 µM (inactive)

--- query ---
Reported GI50 of O=c1[nH]c2cc(F)c(F)cc2nc1Cc1ccccc1 : > 100 µM (inactive)
